FYI, the data here is from patent US4118424A.

test system: green sunfish (Lepomis cyanellus); test: Green sunfish toxicity over a period of time; format: in vivo; conditions: initial concentration 0.1 ppm
# key: entry, value: Number of days 100% mortality

{"compound": "CCOc1ccc(C(c2ccc(C)cc2)C(C)Cl)cc1 (stereo not drawn) [Example III]", "tgt": "green sunfish (Lepomis cyanellus)", "endpoint_value": "0 days"}
{"compound": "CCOc1ccc(C(c2ccc(C)cc2)C(C)C)cc1 (stereo not drawn) [XIV]", "tgt": "green sunfish (Lepomis cyanellus)", "endpoint_value": "0 days"}
{"compound": "CCOc1ccc(C(c2ccc(OCC)cc2)C(C)(C)Cl)cc1 [XXI]", "tgt": "green sunfish (Lepomis cyanellus)", "endpoint_value": "0 days"}
{"compound": "CCOc1ccc(C(c2ccc(OCC)cc2)C(C)C)cc1 [Example XI]", "tgt": "green sunfish (Lepomis cyanellus)", "endpoint_value": "> 35 days"}
{"compound": "CCOc1ccc(C(c2ccc(OCC)cc2)C(C)Cl)cc1 (stereo not drawn) [V]", "tgt": "green sunfish (Lepomis cyanellus)", "endpoint_value": "4 days"}

Then there is this compound:
Noted Number of days 100% mortality for CCOc1ccc(C(c2ccc(OCC)cc2)C(Cl)(Cl)Cl)cc1 [ethoxychlor, reference compound] , tested on green sunfish (Lepomis cyanellus): 21 days
